Attribution: ChEMBL document CHEMBL4732114

Target or test system: Multidrug efflux pump subunit AcrB (Escherichia coli (strain K12))
Assay name: Inhibition of AcrB in multidrug-resistant Escherichia coli BW25113 assessed as potentiation of tetraphenylphosphonium-induced antibacterial activity by measuring tetraphenylphosphonium MIC at 128 ug/ml by checkerboard titration method (reference value: 1024 ug/ml)
Cond: dose 128.0 µg/ml
MIC overview
# number only, unit mg/L dropped from output

Some solved entries appear below for comparison.
{"Compound": "Cc1ccccc1COc1cccc2c3c(c(-c4nnco4)cc12)CCC(C)(C)O3", "Measured number": 256}
{"Compound": "CC1(C)CCc2c(-c3nnco3)cc3c(OCc4ccc(C#N)cc4)cccc3c2O1", "Measured number": 512}
{"Compound": "CC1(C)CCc2c(Cn3cnnn3)cc3c(OCc4ccccc4)cccc3c2O1", "Measured number": 1020}

Request: Can you look up the measured MIC of CC1(C)CC(=O)c2ccc(OCCNC3CCCC3)cc2O1 for me?
Result: 512

Request: What do you get for Cc1ccc(COc2cccc3c4c(c(-c5nnco5)cc23)CCC(C)(C)O4)cc1 ?
Result: 64

Request: What do you get for CC1(C)CCc2c(-c3nnco3)cc3c(OCc4ccc([N+](=O)[O-])cc4)cccc3c2O1 ?
Result: 1020

Request: What do you get for CC1(C)CCc2c(C(=O)O)cc3c(OCc4ccccc4)cccc3c2O1 ?
Result: 64

Request: What do you get for C[C@@H](Cc1ccc(O)c(O)c1)[C@@H](C)Cc1ccc(O)c(O)c1 ?
Result: 128

Request: What do you get for CC1CN(C(=O)c2cc3c(OCc4ccc(Br)cc4)cccc3c3c2CCC(C)(C)O3)CC(C)O1 (stereo not given) ?
Result: 512

Request: What do you get for COc1cccc(COc2cccc3c4c(c(-c5nnco5)cc23)CCC(C)(C)O4)c1 ?
Result: 512
